TEST SYSTEM: DNA polymerase beta (Rattus norvegicus, UniProt P06766)
ASSAY METHOD TEXT: Inhibition of rat DNA polymerase beta in absence of BSA
READOUT: IC50 (µM)
Please state the figure in µM; there is no need to write the unit.

For the compound shown here, `C=C1CC[C@]2(C(=O)O)CC[C@]3(C)[C@H](CC[C@@H]4[C@@]5(C)CC[C@H](O)C(C)(C)[C@@H]5CC[C@]43C)C2=C1C` , give the reported IC50.
2.5

For the compound shown here, `CC1(C)CC[C@]2(C(=O)O)CC[C@]3(C)C(=CC[C@@H]4[C@@]5(C)CC[C@H](O)C(C)(C)[C@@H]5CC[C@]43C)[C@@H]2C1` , give the reported IC50.
3.7

For the compound shown here, `C[C@H]1[C@H](C)CC[C@]2(C(=O)O)CC[C@]3(C)C(=CC[C@@H]4[C@@]5(C)CC[C@H](O)C(C)(C)[C@@H]5CC[C@]43C)[C@H]12` , give the reported IC50.
4.8

For the compound shown here, `C=C1[C@H]2C3=CC[C@@H]4[C@@]5(C)CC[C@H](O)C(C)(C)[C@@H]5CC[C@@]4(C)[C@]3(C)CC[C@@]2(C(=O)O)CC[C@H]1C` , give the reported IC50.
3.2
